B1: library; a variant is named by its letters at X, in order (parent)
chain: MNIQIGELAKRTACPVVTIRFYEQEGLLPPPGRSRGNFRLYGEEHVERLQFIRHCRSLDMPLSXVRTLLSYRKRPDQDCGEVXMLLDEHIRQVESRIGALLELXHHXVELREACSGARPAQSCGILQXLSXCVCXTRGTTAHXSD

Variants of: B1
Assay: sfGFP reporter fluorescence (15 h) (µM FITC); higher = stronger transcriptional activation
Settings: library round: Round 3; ligand: 30 µM Zn
Tick true if sfGFP reporter fluorescence is 0.3 or greater. Tick false if sfGFP reporter fluorescence is less than 0.3.

SEQUENCE VARIANT: DNRCGAAP
CATEGORY LABEL: true
--
SEQUENCE VARIANT: DTKLGSPL
CATEGORY LABEL: false
--
SEQUENCE VARIANT: KNVCMDDP M60L
CATEGORY LABEL: true
--
SEQUENCE VARIANT: DTKLGSDP Q121A H142A
CATEGORY LABEL: true

Q. Check this variant for sfGFP reporter fluorescence at or above 0.3: DNKLHAPW L101V
A. true

Q. Check this variant for sfGFP reporter fluorescence at or above 0.3: DTKCGSAP
A. true

Q. Check this variant for sfGFP reporter fluorescence at or above 0.3: KNVCMDDP E81A
A. true

Q. Check this variant for sfGFP reporter fluorescence at or above 0.3: DNKCMDAK P61N
A. true

Q. Check this variant for sfGFP reporter fluorescence at or above 0.3: KNICMDDP M60L
A. true

Q. Check this variant for sfGFP reporter fluorescence at or above 0.3: DNRCMDAK
A. true

Q. Check this variant for sfGFP reporter fluorescence at or above 0.3: LCKCGAAP H54C C55P H106L
A. false
